Catalogue of inhibition at 1 µM readings, one per entry.
Target: MAGL (Mus musculus (Mouse))
Assay: In vitro competitive activity-based protein profiling, mouse proteomes (brain membrane fraction or cell lysates)
Format: biochemical
Details: mouse proteome, read-out: MAGL % inh. 1 μM (mouse)
Measure: inhibition at 1 µM

# Molecule, Measure, Endpoint Result
records = [
    ("CS(=O)(=O)Nc1ccn(C(=O)N2CCN(Cc3cccnc3N3CCCC3)CC2)n1", "inhibition at 1 µM", "50 to 75%"),
    ("CS(=O)(=O)Nc1ccn(C(=O)N2CC3CN(Cc4ccc(Oc5ccc(Cl)cc5)cc4)CC3C2)n1 (stereo not drawn)", "inhibition at 1 µM", "25 to 50%"),
    ("CC(=O)Nc1ccn(C(=O)N2CCC3(CCCN3C(=O)c3cc4ccc(C(F)(F)F)cc4s3)CC2)n1", "inhibition at 1 µM", "> 75%"),
    ("CC(=O)Nc1ccn(C(=O)N2CCC(C)(N(C)Cc3ccc(C(N)=O)c(C(F)(F)F)c3)CC2)n1", "inhibition at 1 µM", "> 75%"),
    ("CN(Cc1ccc(Cl)c(N2CC3COCC3C2)c1)C1(C)CCN(C(=O)n2ccc(NS(C)(=O)=O)n2)CC1 (stereo not drawn)", "inhibition at 1 µM", "0 to 25%"),
    ("C[C@H]1CN(C(=O)n2ccc(NS(C)(=O)=O)n2)CCN1Cc1ccc(Cl)c(N2CCC(F)(F)CC2)c1", "inhibition at 1 µM", "> 75%"),
    ("CS(=O)(=O)Nc1ccn(C(=O)N2CCC(OCc3ccc(Cl)c(N4CCC(F)CC4)c3)CC2)n1", "inhibition at 1 µM", "> 75%"),
    ("CS(=O)(=O)Nc1ccn(C(=O)N2CCN(Cc3ccc(Cl)c(N4CC[C@H](F)C4)c3)CC2)n1", "inhibition at 1 µM", "> 75%"),
    ("CS(=O)(=O)Nc1ccn(C(=O)N2CCC(Oc3ccc(C(F)(F)F)c(-c4nnco4)c3)CC2)n1", "inhibition at 1 µM", "> 75%"),
    ("CS(=O)(=O)Nc1ccn(C(=O)N2CCN(Cc3cc4cc(F)ccc4[nH]3)CC2)n1", "inhibition at 1 µM", "> 75%"),
    ("CS(=O)(=O)Nc1ccn(C(=O)N2CCN(Cc3ccc(Cl)c(N4CCO[C@@H]5CCC[C@@H]54)c3)CC2)n1", "inhibition at 1 µM", "> 75%"),
    ("CN(Cc1ccc(C(F)(F)F)cc1N1CCC(C(=O)O)C1)C1(C)CCN(C(=O)n2ccc(NS(C)(=O)=O)n2)CC1 (stereo not drawn)", "inhibition at 1 µM", "25 to 50%"),
    ("C[C@@H]1CN(C(=O)n2ccc(NS(C)(=O)=O)n2)CCN1Cc1ccc(Cl)c(N2CCC[C@H]2C)c1", "inhibition at 1 µM", "> 75%"),
    ("C[C@H]1CN(C(=O)n2ccc(NS(C)(=O)=O)n2)CCN1Cc1cc(N2CCC(F)CC2)c(Cl)cn1", "inhibition at 1 µM", "> 75%"),
    ("CS(=O)(=O)Nc1ccn(C(=O)N2CCN(Cc3ccc(C(F)(F)F)cc3NCCC(=O)O)CC2)n1", "inhibition at 1 µM", "0 to 25%"),
]

###

Target: MAGL (Mus musculus (Mouse), UniProt O35678)
Sequence (O35678 whole entry): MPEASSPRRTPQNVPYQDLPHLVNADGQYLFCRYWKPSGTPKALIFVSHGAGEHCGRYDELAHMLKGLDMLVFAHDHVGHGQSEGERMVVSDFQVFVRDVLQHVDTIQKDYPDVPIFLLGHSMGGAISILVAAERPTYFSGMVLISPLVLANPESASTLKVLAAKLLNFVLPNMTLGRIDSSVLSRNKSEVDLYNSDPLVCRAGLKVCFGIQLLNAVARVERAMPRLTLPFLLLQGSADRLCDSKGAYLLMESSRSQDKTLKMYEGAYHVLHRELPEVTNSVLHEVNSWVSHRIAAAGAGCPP
Test: In vitro competitive activity-based protein profiling, mouse proteomes (brain membrane fraction or cell lysates)
Format: biochemical
Conditions: mouse proteome, read-out: MAGL % inh. 1 μM (mouse)

# Molecule, inhibition at 1 µM
records = [
    ("CC(=O)Nc1ccn(C(=O)N2CCC3(CCCN3C(=O)c3ccc(C#N)c(C4CC4)c3)CC2)n1 [Example 87]", "> 75%"),
    ("CC(C)OC1CCN(c2cc(CN3CCN(C(=O)n4ccc(NS(C)(=O)=O)n4)C[C@@H]3C)ccc2Cl)CC1 [Example 32]", "> 75%"),
    ("CS(=O)(=O)Nc1ccn(C(=O)N2CC3CN(Cc4ccc(Cl)c(N5CC6COCC6C5)c4)CC3C2)n1 (stereo not shown) [Example 140]", "0 to 25%"),
    ("CS(=O)(=O)Nc1ccn(C(=O)N2CCN(Cc3ccc(Cl)c(OC4CCCC4)c3)CC2)n1 [Example 111]", "> 75%"),
    ("CS(=O)(=O)Nc1ccn(C(=O)N2CCC3(CCN(Cc4ccc(N5CC6COCC6C5)c(Cl)c4)C3)CC2)n1 (stereo not shown) [Example 160]", "0 to 25%"),
    ("CS(=O)(=O)Nc1ccn(C(=O)N2CCC3(CCN(Cc4ccccc4Cl)C3)CC2)n1 [Example 162]", "0 to 25%"),
    ("CS(=O)(=O)Nc1ccn(C(=O)N2CCC3(CCCN3Cc3ccc(C(F)(F)F)cc3NCCCC(=O)O)CC2)n1 [Example 1]", "0 to 25%"),
]

Source of measurements: patent US11149037B2
